assay: physchem
Listing: chromatographic logP of selected molecules

chromatographic logP measured on Cc1n[nH]c(=O)c(-c2cccs2)c1-c1ccc(Cl)s1 = 2.71

New cases:
Entry CC1(O)OC(=O)C(c2cccs2)=C1c1ccc(Cl)s1 (stereo not drawn) , chromatographic logP reported as 2.9

Query Cc1nnc(Cl)c(-c2cccs2)c1-c1ccc(Cl)s1 yields chromatographic logP of 3.56

All figures here come from patent EP1978023A1.
